Data provenance is patent US9758527B2.

Molecular target: G protein-coupled receptor 119 (GPR-119) (Mesocricetus auratus)
Construct: hamster-derived β-cells containing G protein-coupled receptor 119 (GPR-119), HIT-T15 cells; host or cells: HIT-T15 (hamster pancreatic β-cells)
Assay: Evaluation of cAMP activity in HIT-T15 cells (HTRF cAMP dynamic kit)
Assay type: cell-based, hamster
Conditions: cAMP activation, read-out: EC50 value
pEC50: −log10 of the molar value.
measured endpoint: pEC50

> print(dat)
                                   compound  measured.endpoint  value.measured
1  CC(C)c1noc(N2CCC(COc3ccc(C4=CCC(C(=O)N5CCC(O)CC5)CC4)cc3)CC2)n1 (stereo not drawn)              pEC50          ≥ 7.30
2  CC(C)(C)OC(=O)N1CCC(COc2ccc(C3=CCC(C(=O)N4CC[C@@H](O)C4)CC3)cc2F)CC1 (stereo partly drawn)              pEC50          ≥ 7.30
3  CON(C)C(=O)C1CC=C(c2ccc(OCC3CCN(C(=O)OC(C)(C)C)CC3)cc2)CC1 (stereo not drawn)              pEC50          ≥ 7.30
4  CC(C)(C)OC(=O)N1CCC(COc2ccc(C3=CCC(C(=O)N4CC[C@@H](F)C4)CC3)cn2)CC1 (stereo partly drawn)              pEC50          ≥ 7.30
5  CC(C)(C)OC(=O)N1CCC(COc2ccc(C3=CCC(C(=O)N4CC[C@@H](O)C4)CC3)cc2)CC1 (stereo partly drawn)              pEC50          ≥ 7.30
6  CCc1cnc(N2CCC(COc3ccc(C4=CCC(C(=O)N5CCC(=O)C5)CC4)cc3)CC2)nc1 (stereo not drawn)              pEC50          ≥ 7.30

---

Molecular target: G protein-coupled receptor 119 (GPR-119) (Mesocricetus auratus)
Construct: hamster-derived β-cells containing G protein-coupled receptor 119 (GPR-119), HIT-T15 cells; host or cells: HIT-T15 (hamster pancreatic β-cells)
Experiment: Evaluation of cAMP activity in HIT-T15 cells (HTRF cAMP dynamic kit)
Format: cell-based, hamster
Conditions: cAMP activation, 1 h at 37° C., six concentrations, read-out: EC50
pEC50: −log10 of the molar value.
Returns MET if the recorded pEC50 is greater than or equal to 7, and NOT MET otherwise.

> print(dat)
                                   molecule  qualitative.label
1  CC(C)(C)OC(=O)N1CCC(COc2ccc(C3=CCC(C(=O)NC(CO)CO)CC3)nc2)CC1 (stereo not shown) [Example 14]            NOT MET
2  CC(C)(C)OC(=O)N1CCC(COc2ccc(C3=CCC(C(=O)N4CCC(=NO)CC4)CC3)cc2)CC1 (stereo not shown) [Example 271]                MET
3  C[C@H](O)CNC(=O)C1CC=C(c2ccc(OCC3CCN(C(=O)OC(C)(C)C)CC3)nc2)CC1 (stereo partly shown) [Example 26]            NOT MET
4  CC(C)c1noc(N2CCC(COc3ccc(C4=CCC(C(=O)NC[C@H](O)CO)CC4)cc3)CC2)n1 (stereo partly shown) [Example 18]            NOT MET

---

Target: G protein-coupled receptor 119 (GPR-119) (Mesocricetus auratus, UniProt A0A1U8CD06)
Construct: hamster-derived β-cells containing G protein-coupled receptor 119 (GPR-119), HIT-T15 cells; host or cells: HIT-T15 (hamster pancreatic β-cells)
Sequence (A0A1U8CD06 1-334): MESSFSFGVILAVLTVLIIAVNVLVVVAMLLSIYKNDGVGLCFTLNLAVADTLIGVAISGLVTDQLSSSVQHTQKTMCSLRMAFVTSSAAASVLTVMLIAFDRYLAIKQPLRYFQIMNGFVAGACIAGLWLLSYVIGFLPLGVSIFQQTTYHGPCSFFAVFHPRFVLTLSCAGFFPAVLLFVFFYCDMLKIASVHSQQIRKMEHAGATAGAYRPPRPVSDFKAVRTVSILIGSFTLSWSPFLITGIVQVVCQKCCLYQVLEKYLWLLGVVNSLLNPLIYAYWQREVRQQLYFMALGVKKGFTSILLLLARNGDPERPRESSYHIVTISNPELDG
Assay: Evaluation of cAMP activity in HIT-T15 cells (HTRF cAMP dynamic kit)
Type: cell-based, hamster
Settings: cAMP activation, 1 h at 37° C., six concentrations, read-out: EC50
pEC50: −log10 of the molar value. Where a name gives a salt, the structure may show the parent alone.
# key: entry, value: pEC50
measured endpoint: pEC50

> print(dat)
                                    molecule  value.measured
 1  CCc1cnc(N2CCC(COc3ccc(C4=CCC(C(=O)N(CCO)CCO)CC4)cc3)CC2)nc1 (stereo not drawn)            7.62
 2  CC(C)(C)OC(=O)N1CCC(COc2ccc(C3=CCC(C(=O)N4CC=CC4)CC3)cc2)CC1 (stereo not drawn)            7.42
 3  CC(C)(C)OC(=O)N1CCC(COc2ccc(C3=CCC(C(=O)NCC(F)(F)F)CC3)c(F)c2)CC1 (stereo not drawn)            7.07
 4  C[C@H](CO)NC(=O)C1CC=C(c2ccc(OCC3CCN(C(=O)OC(C)(C)C)CC3)c(F)c2)CC1 (stereo partly drawn)            7.40
 5  CC(C)(C)OC(=O)N1CCC(COc2ccc(C3=CCC(C(=O)N4CC[C@@H](O)C4)CC3)cc2)CC1 (stereo partly drawn)            7.54
 6  CC(C)(C)OC(=O)N1CCC(COc2ccc(C3=CCC(C(=O)NC[C@H](O)CO)CC3)cc2F)CC1 (stereo partly drawn)            6.96
 7  CCc1cnc(N2CCC(COc3ccc(C4=CCC(C(=O)N5CC[C@H](F)C5)CC4)cc3)CC2)nc1 (stereo partly drawn) [Example 161, hydrochloride]            8.22
 8  CC(C)c1noc(N2CCC(COc3ccc(C4=CCC(C(=O)N5CCC[C@H]5C(N)=O)CC4)cc3F)CC2)n1 (stereo partly drawn)            7.26
 9  CC(C)c1noc(N2CCC(COc3ccc(C4=CCC(C(=O)NC(CO)CO)CC4)cc3)CC2)n1 (stereo not drawn)            6.80
10  CON=C1CCN(C(=O)C2CC=C(c3ccc(OCC4CCN(C(=O)OC(C)(C)C)CC4)cc3)CC2)CC1 (stereo not drawn)            7.92
11  CC(C)c1noc(N2CCC(COc3ccc(C4=CCC(C(=O)N(C)CCCO)CC4)cc3)CC2)n1 (stereo not drawn)            7.52
12  CC(C)(C)OC(=O)N1CCC(COc2ccc(C3=CCC(C(=O)N4CCCC4)CC3)cc2)CC1 (stereo not drawn)            7.62
13  CC(C)(C)OC(=O)N1CCC(COc2ccc(C3=CCC(C(=O)NC4CCCC4)CC3)cc2)CC1 (stereo not drawn)            7.55
14  CCc1cnc(N2CCC(COc3ccc(C4=CCC(C(=O)N5CCN(CCO)CC5)CC4)cc3)CC2)nc1 (stereo not drawn)            7.42
15  CC(C)c1noc(N2CCC(COc3ccc(C4=CCC(C(=O)NCC(F)F)CC4)cc3F)CC2)n1 (stereo not drawn)            7.30
16  CC(C)c1noc(N2CCC(COc3ccc(C4=CCC(C(=O)N5CCC(CO)CC5)CC4)cc3)CC2)n1 (stereo not drawn)            7.92
17  CC(C)(C)OC(=O)N1CCC(COc2ccc(C3=CCC(C(=O)NC[C@@H](O)CO)CC3)c(F)c2)CC1 (stereo partly drawn)            6.82
18  CC(C)c1noc(N2CCC(COc3ccc(C4=CCC(C(=O)NCC(=O)N5CCC[C@@H]5C(N)=O)CC4)cc3F)CC2)n1 (stereo partly drawn)            6.30
19  CCc1cnc(N2CCC(COc3ccc(C4=CCC(C(=O)N5CCC(CCO)CC5)CC4)cc3)CC2)nc1 (stereo not drawn)            7.74
20  CCc1cnc(N2CCC(COc3ccc(C4=CCC(C(=O)N5CCC[C@H]5CO)CC4)cc3)CC2)nc1 (stereo partly drawn)            8.17
21  CC(C)c1noc(N2CCC(COc3ccc(C4=CCC(C(=O)NC(CO)CO)CC4)cc3F)CC2)n1 (stereo not drawn)            7.05
22  CC(C)(C)OC(=O)N1CCC(COc2ccc(C3=CCC(C(=O)NC[C@@H](O)CO)CC3)cc2F)CC1 (stereo partly drawn)            7.30
23  CC(C)c1noc(N2CCC(COc3ccc(C4=CCC(C(=O)NCC(=O)N5CCOCC5)CC4)cc3F)CC2)n1 (stereo not drawn)            7.15
24  CCc1cnc(N2CCC(COc3ccc(C4=CCC(C(=O)N5CCC[C@H]5C(N)=O)CC4)cc3)CC2)nc1 (stereo partly drawn)            7.37
25  CCc1cnc(N2CCC(COc3ccc(C4=CCC(C(=O)N5CCC(CO)CC5)CC4)cc3)CC2)nc1 (stereo not drawn) [Example 165]            8.15
26  CC(C)c1noc(N2CCC(COc3ccc(C4=CCC(C(=O)NCC(F)(F)F)CC4)cc3)CC2)n1 (stereo not drawn)            7.00
27  CC(C)c1noc(N2CCC(COc3ccc(C4=CCC(C(=O)NCC(C)(C)CO)CC4)cc3)CC2)n1 (stereo not drawn)            7.39
28  CC(C)c1noc(N2CCC(COc3ccc(C4=CCC(C(=O)NCC(=O)N5CCC[C@H]5C#N)CC4)cc3F)CC2)n1 (stereo partly drawn)            6.89
29  CON(C)C(=O)C1CC=C(c2ccc(OCC3CCN(c4nc(C(C)C)no4)CC3)cc2)CC1 (stereo not drawn)            7.80
30  CCc1cnc(N2CCC(COc3ccc(C4=CCC(C(=O)N5CCCC5)CC4)cc3)CC2)nc1 (stereo not drawn) [Example 162]            7.57
